For each of the variants below, state its normalized RNA/DNA level without ligand (log10).
B1: library; a variant is named by its letters at N, in order (parent)
chain: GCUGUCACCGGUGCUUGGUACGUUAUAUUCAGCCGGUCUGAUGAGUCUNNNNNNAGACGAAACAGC

Variants of: B1
Experiment: normalized RNA/DNA level without ligand (relative to sTRSVctl = 100) (log10 (% of sTRSVctl)); HEK293T overexpressing SLC46A1; higher = less ribozyme self-cleavage, higher mRNA level
Conditions: without (6R,S)-folinic acid; ligand present: no

Take a look at these entries with their results.
| mutation string | result value |
| --- | --- |
| GAGUAC | 1.95 |
| GAUGUG | 1.89 |
| AUUAAU | 1.96 |
| CGUUAG | 2.01 |
| AGUGUU | 2.03 |

Hey, can you go through the list below and give me normalized RNA/DNA level without ligand (log10) for every item?
1. CUCCUA
2. AUCGCU
3. CGCCGU
4. AACCUA
5. CGGCCG

## Output
2.02
2.03
2.04
2.01
2.04

Look up normalized RNA/DNA level without ligand (log10) for the entries below, preserving their order.
1. UUGUUA
2. GAUGUU

## Output
1: 2.03; 2: 1.98

// data source = the supplement of paper PMC6757056
